Tested on: MT4
Assay Info: Compound was tested for antiviral activity against HIV-IIIB in MT-4 cells in presence of 50% human serum
Type: functional, cell-based
For each entry below, report its pEC50 value.
One number for each entry, as −log10 of the molar value.

Below, 4 molecules whose answers are already recorded.
Cc1ncnc(C)c1OCC(=O)N[C@H](Cc1ccccc1)[C@H](O)C[C@@H](Cc1ccccc1)NC(=O)[C@@H](C(C)C)N1CCCNC1=O	5.38
CC(C)[C@H](C(=O)N[C@H](Cc1ccccc1)C[C@@H](O)[C@@H](Cc1ccccc1)NC(=O)COc1ccccc1)N1CCCNC1=O	5.89
Cc1cc(C)cc(OCC(=O)N[C@H](Cc2ccccc2)[C@H](O)C[C@@H](Cc2ccccc2)NC(=O)[C@@H](C(C)C)N2CCCNC2=O)c1	4.42
Cc1cccc(C)c1CCC(=O)N[C@H](Cc1ccccc1)[C@H](O)C[C@@H](Cc1ccccc1)NC(=O)[C@@H](C(C)C)N1CCCNC1=O	5.59

Please give pEC50, item by item, for the list that follows.
1. COc1cccc(OC)c1OCC(=O)N[C@H](Cc1ccccc1)[C@H](O)C[C@@H](Cc1ccccc1)NC(=O)[C@@H](C(C)C)N1CCCNC1=O
2. CC(C)[C@H](C(=O)N[C@H](Cc1ccccc1)C[C@@H](O)[C@@H](Cc1ccccc1)NC(=O)COc1c(Cl)cccc1Cl)N1CCCNC1=O
3. Cc1ccnc(C)c1OCC(=O)N[C@H](Cc1ccccc1)[C@H](O)C[C@@H](Cc1ccccc1)NC(=O)[C@@H](C(C)C)N1CCCNC1=O

Result:
4.85
5.55
6.11
